Reference source: PubChem BioAssay AID2165

Target: Tyrosine-protein kinase JAK2 (Homo sapiens)
Experiment: JAK2V617F kinase, IRF1 reporter and Ba/F3 cytotoxicity panel, late-stage follow-up, HEL and Ba/F3 cells (AID 2165)
Conditions: JAK2V617F
Activity calls are given as the source filed them. No stated cut-off is given here; in the data, active means IC50 below about 9 µM; inactive means the rest.
Please answer using one outcome listed in class 1 (active), class 0 (inactive)

Q: Answer briefly: the call reported for C/C(=C\c1ccccc1F)C(=O)c1c(C)cc(C)[nH]c1=O in this assay.
A: class 0

Q: What about N#C/C(=C\c1ccc(O)c(O)c1)C(=O)NCCCCc1ccccc1 ?
A: class 1

Q: What about Cc1cccc(OCC(=O)Nc2ccccc2F)c1 ?
A: class 0

Q: What about COc1cc2ncnc(Nc3cccc(C)c3)c2cc1OC ?
A: class 0

Q: What about Cc1[nH]c(=O)c(C(=O)/C=C/c2ccccc2)c2c1CCCC2 ?
A: class 1

Q: What about N#CC(C#N)=Cc1ccc(O)c(O)c1 ?
A: class 0

----------
Target: Tyrosine-protein kinase JAK2 (Homo sapiens) (UniProt O60674)
Sequence (O60674 whole entry, looked up, change not shown): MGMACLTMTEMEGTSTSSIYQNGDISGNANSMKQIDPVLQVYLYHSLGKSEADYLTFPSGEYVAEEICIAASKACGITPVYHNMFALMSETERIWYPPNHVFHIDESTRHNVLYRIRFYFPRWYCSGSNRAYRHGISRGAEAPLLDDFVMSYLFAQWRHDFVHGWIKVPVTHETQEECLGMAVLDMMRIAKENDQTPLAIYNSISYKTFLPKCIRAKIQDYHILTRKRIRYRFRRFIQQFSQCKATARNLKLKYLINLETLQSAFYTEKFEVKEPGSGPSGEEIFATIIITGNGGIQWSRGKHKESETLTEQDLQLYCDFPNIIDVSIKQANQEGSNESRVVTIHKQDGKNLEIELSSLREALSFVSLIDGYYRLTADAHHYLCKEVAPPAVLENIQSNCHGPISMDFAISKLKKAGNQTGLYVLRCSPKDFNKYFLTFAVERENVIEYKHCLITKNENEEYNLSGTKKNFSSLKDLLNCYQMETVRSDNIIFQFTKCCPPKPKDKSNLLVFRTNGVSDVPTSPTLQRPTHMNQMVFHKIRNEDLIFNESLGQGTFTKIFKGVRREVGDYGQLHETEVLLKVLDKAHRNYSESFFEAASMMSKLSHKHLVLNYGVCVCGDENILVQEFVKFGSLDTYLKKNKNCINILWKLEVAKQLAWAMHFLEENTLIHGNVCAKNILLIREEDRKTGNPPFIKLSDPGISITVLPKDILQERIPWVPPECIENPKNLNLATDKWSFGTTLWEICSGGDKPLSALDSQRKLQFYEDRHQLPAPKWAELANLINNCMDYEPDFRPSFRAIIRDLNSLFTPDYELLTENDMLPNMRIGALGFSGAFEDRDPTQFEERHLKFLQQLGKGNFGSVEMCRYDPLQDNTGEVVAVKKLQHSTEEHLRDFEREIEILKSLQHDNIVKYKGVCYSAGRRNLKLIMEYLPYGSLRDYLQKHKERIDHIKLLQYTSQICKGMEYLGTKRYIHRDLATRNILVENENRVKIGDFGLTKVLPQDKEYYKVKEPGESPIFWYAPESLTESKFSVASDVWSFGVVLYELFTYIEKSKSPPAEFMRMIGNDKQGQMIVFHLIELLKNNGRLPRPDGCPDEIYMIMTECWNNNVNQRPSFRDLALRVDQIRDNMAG
Assay: JAK2V617F kinase, IRF1 reporter and Ba/F3 cytotoxicity panel, late-stage follow-up, HEL and Ba/F3 cells (AID 2165)
Details: Ba/F3, irf1 reporter
Kindly state IC50 for each of the entries shown.

Q: Fill blank: measured IC50 of the molecule O=C(Nc1cccc(NC(=O)c2cccs2)c1)c1ccc([N+](=O)[O-])o1 is ____.
A: 4.5 µM

Q: What about COc1cccc(N(C(=O)CCl)C(C(=O)NCCc2ccccc2)c2cccs2)c1 (stereo unspecified) ?
A: 2.76 µM

Q: What about c1ccc2c(CN3CCCCCC3)c[nH]c2c1 ?
A: 14.3 µM

Q: What about COc1cc2ncnc(Nc3ccc(O)c(Br)c3)c2cc1OC ?
A: 2.18 µM

Q: What about O=C(NC1C=CS(=O)(=O)C1)c1sc2ccccc2c1Cl (stereo unspecified) ?
A: 8.98 µM

Q: What about Cc1ccccc1CS(=O)(=O)c1nnc([C@H](Cc2ccccc2)NC(=O)OC(C)(C)C)o1 ?
A: 1.56 µM

Q: What about Cc1oc2c(O)c(O)ccc2c(=O)c1-c1cnn(-c2ccccc2)c1 ?
A: 12.8 µM

Q: What about N#CC(C#N)=Cc1cc(O)c(O)c(I)c1 ?
A: 5.01 µM

Q: What about Nc1nc(CCl)nc(Nc2ccc3ccccc3c2)n1 ?
A: 7.46 µM

Q: What about Cc1cc(C)c(C(=O)/C=C/c2ccccc2F)c(=O)[nH]1 ?
A: 24 µM

Q: What about Cc1[nH]c(=O)c(C(=O)C=Cc2ccc(Cl)cc2Cl)c2c1CCCC2 ?
A: 0.53 µM

----------
Target: Tyrosine-protein kinase JAK2 (Homo sapiens)
Assay: JAK2V617F kinase, IRF1 reporter and Ba/F3 cytotoxicity panel, late-stage follow-up, HEL and Ba/F3 cells (AID 2165)
Details: HEL, irf1 reporter
Activity calls are given as the source filed them. Cut-off read from the data, not from the text of the source: active = IC50 below about 9 µM; inactive = the rest.
Please answer using one outcome listed in y = active, n = inactive

Q: Answer briefly: the call reported for COCCOc1cc2ncnc(Nc3cccc(C#Cc4ccc(O)cc4)c3)c2cc1OCCOC in this assay.
A: y

Q: What about CC1CCCC(NC(=O)NC(=O)CCl)C1C (stereo unspecified) ?
A: y

Q: What about COCCOc1cc2ncnc(Nc3cccc(C#Cc4ccc(-c5ccccc5)cc4)c3)c2cc1OCCOC ?
A: n

Q: What about Cc1ccc2nc(C)cc(Nc3ccc([N+](=O)[O-])cc3)c2c1 ?
A: y

Q: What about COc1ccccc1/C=C/C(=O)c1c2c(c(C)[nH]c1=O)CCCC2 ?
A: y

Q: What about N#C/C(=C\c1ccc(O)c(O)c1)C(=O)NCCc1ccccc1 ?
A: y

Q: What about O=C(/C=C/c1ccc(O)c(O)c1)c1ccc(S(=O)(=O)N2CCCCCC2)cc1 ?
A: n

Q: What about Cc1[nH]c(=O)c(C(=O)C=Cc2ccc(Cl)cc2Cl)c2c1CCCC2 ?
A: y

Q: What about Cc1[nH]c(=O)c(C(=O)C=Cc2ccc(C(C)C)cc2)c2c1CCCC2 ?
A: y

Q: What about CCC(C)[C@@H](NC(=O)OC(C)(C)C)c1nnc(S(=O)(=O)Cc2cccc(C)c2)o1 (stereo partly specified) ?
A: y

Q: What about Clc1cccc(Nc2ncnc3ccccc23)c1 ?
A: n

Q: What about Cc1[nH]c(=O)c(C(=O)C=Cc2ccccc2Cl)c2c1CCCC2 ?
A: y

Q: What about c1ccc2c(c1)CSc1sccc1C2=C1CCNCC1 ?
A: n

Q: What about COc1cccc(N(C(=O)CCl)C(C(=O)NCCc2ccccc2)c2cccs2)c1 (stereo unspecified) ?
A: y

Q: What about C/C(=C\c1ccc(N(C)C)cc1)[N+](=O)[O-] ?
A: y

Q: What about COc1cc2ncnc(NC(C)C)c2cc1OC ?
A: n

Q: What about O=C(CSc1nnnn1-c1ccc(F)cc1)c1ccc(O)c(O)c1 ?
A: y

Q: What about COc1cc2c(cc1OC)-c1cc(N3CCCc4ccccc43)nc(=O)n1CC2 ?
A: n

Q: What about O=C(OCn1ncc(Cl)c(Cl)c1=O)c1ccccc1Cl ?
A: y

Q: What about Cc1oc2c(O)c(O)ccc2c(=O)c1-c1cnn(-c2ccccc2)c1 ?
A: y

Q: What about CC(C)c1cc(C=C(C#N)C(=O)NCCCc2ccccc2)cc(C(C)C)c1O ?
A: y

Q: What about O=c1cnn([C@@H]2O[C@H](CO)[C@@H](O)[C@H]2O)c(=O)[nH]1 ?
A: n

Q: What about Cc1ccccc1CS(=O)(=O)c1nnc([C@H](CC(C)C)NC(=O)OC(C)(C)C)o1 ?
A: y

Q: What about CCCCCCN(C(=O)CCl)c1ccccc1 ?
A: y

Q: What about COc1cc2ncnc(Nc3ccc(F)c(F)c3)c2cc1OC ?
A: n

Q: What about COc1ccc(-n2nnnc2SCC(=O)c2ccc(O)c(O)c2)cc1 ?
A: y

Q: What about Cc1nc([N+](=O)[O-])c(Br)n1Cc1ccc(Cl)c(Cl)c1 ?
A: y

Q: What about Cc1nnc(NC(=O)COc2ccccc2)s1 ?
A: n

Q: What about CCOc1cc2ncnc(Nc3cccc(Br)c3)c2cc1OCC ?
A: y

Q: What about COc1cc2ncnc(Nc3cccc(Cl)c3)c2cc1OC ?
A: n

Q: What about CC(C)(C)OC(=O)N[C@@H](Cc1ccccc1)c1nnc(S(=O)(=O)Cc2cccc(F)c2)o1 ?
A: y

Q: What about COc1ccccc1C(C[N+](=O)[O-])c1c(N)n(C)c(=O)n(C)c1=O (stereo unspecified) ?
A: y

Q: What about Cc1[nH]c(=O)c(C(=O)/C=C/c2ccccc2)c2c1CCCC2 ?
A: y

Q: What about COc1ccc(-c2cc(-c3cc(C)ccc3O)[nH]n2)cc1 ?
A: y

Q: What about COc1ccccc1N(C(=O)CCl)c1cn(C(C)=O)c2ccccc12 ?
A: y

Q: What about CCCn1c(CC)nc([N+](=O)[O-])c1S(=O)(=O)c1ccccc1 ?
A: y

Q: What about c1ccc2c(CN3CCCCCC3)c[nH]c2c1 ?
A: y

Q: What about CCN(CC)S(=O)(=O)c1cccc(-n2c(O)c(C=Nc3ccccc3C(=O)O)c3ccccc3c2=O)c1 ?
A: n

Q: What about O=C(C=Cc1ccccc1F)c1c(-c2ccccc2)c2ccccc2[nH]c1=O ?
A: y

Q: What about Oc1ccc(Cl)cc1N=Cc1sc2ccccc2c1Cl ?
A: y

Q: What about COc1ccc(C)cc1NC(=O)Nc1ccc(Br)cn1 ?
A: n

Q: What about Cc1cc(C)c(C(=O)/C=C/c2ccccc2F)c(=O)[nH]1 ?
A: y

Q: What about O=C(COc1ccccc1)Nc1ncccn1 ?
A: n

Q: What about O=S(=O)(c1cnc(Cl)c(Br)c1)N1CCc2ccccc21 ?
A: n

Q: What about COc1cccc(Nc2ncnc3cc(OC)c(OC)cc23)c1 ?
A: y

Q: What about Cc1[nH]c2ccccc2c(=O)c1C(=O)/C=C/c1ccccc1 ?
A: y
